# Tested system: human PI3Kα protein (Homo sapiens, UniProt P42336)
# Construct: purchased Carna Biosciences, Inc; host or cells: Baculovirus expression system
# Sequence (P42336 whole entry): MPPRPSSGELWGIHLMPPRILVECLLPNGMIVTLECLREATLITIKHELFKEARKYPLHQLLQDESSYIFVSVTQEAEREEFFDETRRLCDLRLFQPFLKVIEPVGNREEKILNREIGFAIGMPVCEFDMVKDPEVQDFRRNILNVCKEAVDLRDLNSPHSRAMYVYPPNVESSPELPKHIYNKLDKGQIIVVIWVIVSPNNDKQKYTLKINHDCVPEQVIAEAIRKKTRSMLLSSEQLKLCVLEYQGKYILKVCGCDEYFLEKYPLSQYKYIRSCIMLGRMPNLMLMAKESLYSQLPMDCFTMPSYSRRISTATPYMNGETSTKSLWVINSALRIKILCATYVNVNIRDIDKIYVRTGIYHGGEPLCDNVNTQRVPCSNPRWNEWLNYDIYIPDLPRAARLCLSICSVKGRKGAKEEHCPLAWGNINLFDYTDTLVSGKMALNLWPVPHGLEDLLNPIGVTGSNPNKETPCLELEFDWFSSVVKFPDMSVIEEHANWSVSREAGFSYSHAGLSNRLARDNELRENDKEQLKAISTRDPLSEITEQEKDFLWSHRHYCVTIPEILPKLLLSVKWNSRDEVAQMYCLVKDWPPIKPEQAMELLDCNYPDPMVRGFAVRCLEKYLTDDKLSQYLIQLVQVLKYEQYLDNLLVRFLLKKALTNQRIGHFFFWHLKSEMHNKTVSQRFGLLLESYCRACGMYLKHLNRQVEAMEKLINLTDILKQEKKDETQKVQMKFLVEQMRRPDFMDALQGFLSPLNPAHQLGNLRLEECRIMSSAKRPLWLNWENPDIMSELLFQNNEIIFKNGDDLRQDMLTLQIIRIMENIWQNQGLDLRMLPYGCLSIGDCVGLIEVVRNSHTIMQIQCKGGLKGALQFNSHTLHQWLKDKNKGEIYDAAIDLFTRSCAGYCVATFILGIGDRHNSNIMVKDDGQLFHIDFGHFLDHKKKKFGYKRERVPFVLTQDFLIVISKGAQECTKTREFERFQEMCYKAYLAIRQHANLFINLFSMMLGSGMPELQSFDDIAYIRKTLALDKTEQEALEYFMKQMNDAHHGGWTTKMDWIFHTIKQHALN
# Sequence (P27986 whole entry partner): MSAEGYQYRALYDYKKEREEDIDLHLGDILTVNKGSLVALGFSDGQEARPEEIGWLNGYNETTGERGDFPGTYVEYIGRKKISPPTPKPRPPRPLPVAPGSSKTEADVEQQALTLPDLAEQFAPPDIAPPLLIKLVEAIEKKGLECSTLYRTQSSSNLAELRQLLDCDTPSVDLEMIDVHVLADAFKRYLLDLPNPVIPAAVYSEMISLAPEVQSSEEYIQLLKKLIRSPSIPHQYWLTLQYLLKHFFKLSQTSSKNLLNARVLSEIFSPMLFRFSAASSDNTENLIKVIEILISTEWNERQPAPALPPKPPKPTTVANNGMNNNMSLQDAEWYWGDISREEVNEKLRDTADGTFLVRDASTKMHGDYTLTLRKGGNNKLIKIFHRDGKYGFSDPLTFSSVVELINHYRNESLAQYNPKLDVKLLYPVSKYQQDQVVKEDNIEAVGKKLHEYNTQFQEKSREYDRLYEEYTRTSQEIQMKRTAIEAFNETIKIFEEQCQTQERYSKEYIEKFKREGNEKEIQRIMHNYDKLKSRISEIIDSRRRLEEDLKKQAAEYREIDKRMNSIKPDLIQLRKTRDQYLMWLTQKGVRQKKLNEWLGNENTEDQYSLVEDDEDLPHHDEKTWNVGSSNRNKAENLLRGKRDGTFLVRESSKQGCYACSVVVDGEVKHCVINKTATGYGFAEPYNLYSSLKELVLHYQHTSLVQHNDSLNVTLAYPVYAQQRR
# Procedure summary: PI3Kα enzyme assay (ADP-Glo kinase assay)
# Assay type: biochemical
# Condition label: IC50 class; 3 nM PI3Kα, 50 μM PIP2, 100 μM ATP; read-out: PI3Kα Inhibitory Activity
Metric: IC50

Examples with answers:
>>> print(df.to_string())
                                   compound  metric           value
0  O=C(Nc1ccc2ncc(N3CCN(c4ccccc4)CC3)cc2n1)NC1CCCC1 [Compound 0153]    IC50  100 to 1000 nM
1  COc1cc(Nc2cnc3ccc(NC(=O)NC4CCCC4)nc3c2)cc(OC)c1OC [Compound 0009]    IC50        < 100 nM
2  CCNC(=O)Nc1ccc2ncc(-c3cn[nH]c3)cc2n1 [Compound 0054]    IC50  100 to 1000 nM
3  O=C(Nc1ccc2ncc(-c3c[nH]nc3C(F)(F)F)cc2n1)NC1CCCC1 [Compound 0124]    IC50        < 100 nM
4  O=C(NCCCCc1ccccc1)Nc1ccc2ncc(Nc3cn[nH]c3)cc2n1 [Compound 0250]    IC50        < 100 nM

IC50 measured on O=C(NCCc1c[nH]c2ccccc12)Nc1ccc2ncc(-c3cn[nH]c3)cc2n1 [Compound 0112] = 100 to 1000 nM

The reported IC50 of the compound COc1ccc(-c2cnc3ccc(NC(=O)NC4CCCC4)nc3c2)cc1OC [Compound 0002] was < 100 nM

Lookup result for O=C(NCC1CCC(F)(F)CC1)Nc1ccc2ncc(-c3cnn(CCCN4CCOCC4)c3)cc2n1 [Compound 0180] ; measured IC50: < 100 nM

Summary for this compound, O=C(NCCCN1CCCCC1)Nc1ccc2ncc(-c3cn[nH]c3)cc2n1 [Compound 0202] : IC50 is 1000 to 10000 nM

Given item CN1CC(Cn2cc(-c3cnc4ccc(NC(=O)NC5CCCC5)nc4c3)cn2)C1 [Compound 0147] , the value recorded as its IC50 is < 100 nM

The compound listed as O=C1CN(CCn2cc(-c3cnc4ccc(NC(=O)NC5CCCC5)nc4c3)cn2)CCN1 [Compound 0052] shows IC50 equal to < 100 nM

Summary for this compound, CC(C)(C)OC(=O)N1CC[C@H](NC(=O)Nc2ccc3ncc(-c4cn[nH]c4)cc3n2)C1 [Compound 0071] : IC50 is < 100 nM

# IC50 (compound: O=C(Nc1ccc2ncc(-c3cn[nH]c3)cc2n1)NC1CCOC1 (centres unmarked) [Compound 0075] ) is 100 to 1000 nM
